Assay comment: A CellTox Green Cytotoxicity Assay to monitor cytotoxicity in HepG2 cells - 16 hour (AID 1224876); further: on the % scale 0 is the no-effect control and ±100 the full control effect; nearly all actives have a fitted effect of over 45% in size
Test parameters: CellTox Green fluorescence; series mostly up to 76.8 µM
Records with an inconclusive call do not appear. Active and inactive are the calls of the source. The call rests on the fitted dose curve; in most records, active means well fitted activation curve with a large enough effect in the repeat runs; inconclusive means weak or mixed curves; inactive means flat fitted curve, though single readings scatter.
Parameter measured: cytotoxicity increase

For orientation, consider the following solved cases.
Compound: O=C1OC(CN2CCOCC2)CN1/N=C/c1ccc([N+](=O)[O-])o1 (stereo not drawn)
Parameter measured: cytotoxicity increase
Recorded result: inactive

Compound: C=CCOC(=O)CCC1CCCCC1
Parameter measured: cytotoxicity increase
Recorded result: inactive

Compound: O=[N+]([O-])c1ccc2[nH]ncc2c1
Parameter measured: cytotoxicity increase
Recorded result: inactive

Compound: CCCCc1ncc(/C=C(\Cc2cccs2)C(=O)O)n1Cc1ccc(C(=O)O)cc1
Parameter measured: cytotoxicity increase
Recorded result: inactive

Compound: CCCCCC[C@@H](O)C/C=C\CCCCCCCC(=O)OC
Parameter measured: cytotoxicity increase
Recorded result: inactive

Compound: CCOC(=O)C(=O)CCc1ccccc1
Parameter measured: cytotoxicity increase
Recorded result: inactive

Compound: CC(C)(C)OCC1CO1 (stereo not drawn)
Parameter measured: cytotoxicity increase
Recorded result: inactive

Compound: Clc1ccc(Cn2c(CN3CCCC3)nc3ccccc32)cc1
Parameter measured: cytotoxicity increase
Recorded result: inactive

Suppose we examine the compound `OC(C#CCN1CCCC1)(c1ccccc1)c1ccccc1` ; what cytotoxicity increase value has been reported?
inactive

Suppose we examine the compound `CN(C)c1ccc(CCO)cc1` ; what cytotoxicity increase value has been reported?
inactive

Suppose we examine the compound COc1cc2nc(N(C)CCCNC(=O)C3CCCO3)nc(N)c2cc1OC (stereo not drawn) ; what cytotoxicity increase value has been reported?
inactive

Suppose we examine the compound `CN(C)CCN(Cc1ccsc1)c1ccccn1` ; what cytotoxicity increase value has been reported?
inactive

Suppose we examine the compound `NS(=O)(=O)c1ccc(N2CCCCS2(=O)=O)cc1` ; what cytotoxicity increase value has been reported?
inactive

* * *

Tested on: Nuclear receptor subfamily 1 group I member 3 (Homo sapiens)
Assay comment: qHTS assay to identify small molecule antagonists of the constitutive androstane receptor (CAR) signaling pathway (AID 1224838);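 further: HepG2 cells stably expressing hCAR with CYP2B6 luciferase reporter stimulated by CITCO; on the % scale 0 is the no-effect control and ±100 the full control effect; nearly all actives have a fitted effect of over 40% in size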
Test parameters: HepG2-CYP2B6-hCAR luciferase, CITCO-stimulated, 24 h; series mostly up to 92.4 µM
Inconclusive results are not listed. The source made the active and inactive calls. Calls follow the shape of the dose curve; as a rule, active = well fitted inhibition curve with a large enough effect in the repeat runs; inconclusive = weak or mixed curves, or effect the other way; inactive = no such curve, though single readings can be large or run the other way.
Lab note: assign the record to one of active, inactive

# example entries with known answers
Molecule: CCCCCCCCCCCC(=O)OC[C@@H](O)[C@H]1OC[C@H](OCCO)[C@H]1OCCO
Assigned category: inactive

Molecule: CCCCCCCN
Assigned category: inactive

Molecule: CC(CC=O)c1ccccc1 (stereo not drawn)
Assigned category: inactive

Molecule: c1ccc(CNCCNCc2ccccc2)cc1
Assigned category: inactive

Molecule: CCOC(=O)Cc1cccc2ccccc12
Assigned category: inactive

Consider now this further molecule.
Given `CCOc1ccc(N)c([N+](=O)[O-])c1` , state the outcome it received in this test.
inactive

* * *

Tested on: Androgen receptor (Homo sapiens) (UniProt P10275)
Sequence (P10275 whole entry, looked up): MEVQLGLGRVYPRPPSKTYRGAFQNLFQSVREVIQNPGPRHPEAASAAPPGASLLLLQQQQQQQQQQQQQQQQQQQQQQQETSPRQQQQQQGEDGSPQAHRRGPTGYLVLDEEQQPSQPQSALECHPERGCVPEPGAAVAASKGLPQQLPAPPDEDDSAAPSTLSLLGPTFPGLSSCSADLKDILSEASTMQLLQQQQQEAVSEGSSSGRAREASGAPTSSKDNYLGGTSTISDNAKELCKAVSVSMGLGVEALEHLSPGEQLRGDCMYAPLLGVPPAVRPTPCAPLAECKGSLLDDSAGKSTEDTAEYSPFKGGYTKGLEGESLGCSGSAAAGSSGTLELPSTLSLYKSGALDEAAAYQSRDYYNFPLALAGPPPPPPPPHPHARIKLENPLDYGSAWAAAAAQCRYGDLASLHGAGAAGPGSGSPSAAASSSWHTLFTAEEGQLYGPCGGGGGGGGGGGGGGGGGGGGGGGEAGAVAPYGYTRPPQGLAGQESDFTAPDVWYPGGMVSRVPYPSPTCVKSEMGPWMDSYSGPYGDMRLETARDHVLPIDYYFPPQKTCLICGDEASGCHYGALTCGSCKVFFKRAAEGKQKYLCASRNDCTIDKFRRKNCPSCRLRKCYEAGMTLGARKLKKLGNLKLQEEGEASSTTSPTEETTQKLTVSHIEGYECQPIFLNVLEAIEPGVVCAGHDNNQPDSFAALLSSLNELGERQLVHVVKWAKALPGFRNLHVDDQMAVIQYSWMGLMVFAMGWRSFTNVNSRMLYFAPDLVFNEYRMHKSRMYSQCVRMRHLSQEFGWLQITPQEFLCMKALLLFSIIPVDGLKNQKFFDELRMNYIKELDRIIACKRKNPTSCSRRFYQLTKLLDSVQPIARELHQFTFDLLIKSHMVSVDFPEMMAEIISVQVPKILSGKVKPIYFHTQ
Assay comment: qHTS assay to identify small molecule antagonists of the androgen receptor (AR) signaling pathway (AID 743035)
Test parameters: HEK293 AR-UAS-bla, R1881-stimulated, beta-lactamase FRET, 16 h; series mostly up to 58.5 µM
Records with an inconclusive call do not appear. Calls of active or inactive are those of the source. Calls follow the shape of the dose curve; as a rule, active = well fitted inhibition curve with a large enough effect in the signal ratio in the repeat runs (not every such curve was filed as active); inconclusive = weak or mixed curves, or effect the other way; inactive = no such curve, though single readings can be large or run the other way; the % refers to the signal ratio.
Lab note: assign the record to one of T = active, F = inactive

# example entries with known answers
Compound: CCCCCC[C@@H](O)C/C=C\CCCCCCCC(=O)OC
Assigned category: F

Compound: OCCNCc1ccccc1
Assigned category: F

Compound: Nc1cccc([N+](=O)[O-])c1
Assigned category: F

Given `CCCn1cnc2c1c(=O)n(CCCCC(C)=O)c(=O)n2C` , state the outcome it received in this test.
F

Given `CC(=O)OC[C@H]1O[C@@H](n2ncc(=O)[nH]c2=O)[C@H](OC(C)=O)[C@@H]1OC(C)=O` , state the outcome it received in this test.
T

Given `NCc1ccccc1Sc1ccccc1CO` , state the outcome it received in this test.
F

* * *

Assay comment: A CellTox Green Cytotoxicity Assay to monitor cytotoxicity in HepG2 cells - 40 hour (AID 1224879); further: nearly all actives have a fitted effect of over 40% in size; further: potency means the concentration at half of the fitted maximal effect
Test parameters: CellTox Green fluorescence; series mostly up to 76.8 µM
Inconclusive results are not listed. The source made the active and inactive calls. Calls follow the shape of the dose curve; as a rule, active = well fitted activation curve with a large enough effect in the repeat runs; inconclusive = weak or mixed curves; inactive = flat fitted curve, though single readings scatter.
Parameter measured: Potency

For orientation, consider the following solved cases.
Compound: CCCCCCCCCOS(=O)(=O)O
Potency: inactive

Compound: NCc1ccccc1Sc1ccccc1CO
Potency: inactive

Compound: COc1cc(C(=O)OCCCN2CCCN(CCCOC(=O)c3cc(OC)c(OC)c(OC)c3)CC2)cc(OC)c1OC
Potency: 23.9 µM (active)

Compound: Nc1ccccc1S(=O)(=O)c1ccccc1
Potency: inactive

Compound: CCC(C)(C)CC
Potency: inactive

Compound: CCCCCCCCO[C@@H]1O[C@H](CO)[C@@H](O)[C@H](O)[C@H]1O
Potency: inactive

Suppose we examine the compound `O=C1CCC(=O)O1` ; what Potency value has been reported?
inactive

Suppose we examine the compound `CCCCCCCCCc1ccc(OCCOCCO)cc1` ; what Potency value has been reported?
20.5 µM (active)

Suppose we examine the compound O[C@@H](COc1cccc2ncccc12)CN1CCN(C2c3ccccc3[C@@H]3[C@H](c4ccccc42)C3(F)F)CC1 (stereo partly drawn) ; what Potency value has been reported?
inactive

Suppose we examine the compound `O=C(O)CC(=O)C(=O)O` ; what Potency value has been reported?
inactive

* * *

Below, each entry is listed alongside its reported activity change, negative = cytotoxicity.
Assay comment: Human pregnane X receptor (PXR) small molecule agonists, qHTS cell viability counter screen (AID 1346977); further: on the % scale 0 is the no-effect control and ±100 the full control effect; nearly all actives have a fitted effect of over 50% in size
Test parameters: PXR-Luc HepG2 viability, CellTiter-Fluor, 24 h; series mostly up to 92.4 µM
Inconclusive results are not listed. Active and inactive are the calls of the source. Calls come from the whole dose curve; as a rule, active = well fitted cell-killing curve with a large enough effect in the repeat runs; inconclusive = weak or mixed curves, or effect the other way; inactive = flat fitted curve, though single readings scatter.

Molecule: O=C(O)CNCC(=O)O
activity change, negative = cytotoxicity: 4.27% [at 8.39 µM] (inactive)

Molecule: NCC(=O)O
activity change, negative = cytotoxicity: 14.5% [at 19 µM] (inactive)

Molecule: Cc1[nH]c(C)c(Cl)c(=O)c1Cl
activity change, negative = cytotoxicity: 6.66% [at 19 µM] (inactive)

Suppose we examine the molecule `C/C=C/C(=O)CC` ; what activity change, negative = cytotoxicity value has been reported?
-29.3% [at 19 µM] (inactive)

Suppose we examine the molecule CC(CSC(=O)c1ccccc1)C(=O)N1C[C@@H](Sc2ccccc2)C[C@H]1C(=O)O (some centres not stated) ; what activity change, negative = cytotoxicity value has been reported?
14.3% [at 19 µM] (inactive)

Suppose we examine the molecule `Brc1c2ccccc2c(Br)c2ccccc12` ; what activity change, negative = cytotoxicity value has been reported?
4.3% [at 8.39 µM] (inactive)

Suppose we examine the molecule `CN(C)c1ccc(/C=C/c2ccc([N+](=O)[O-])cc2)cc1` ; what activity change, negative = cytotoxicity value has been reported?
-0.583% [at 8.39 µM] (inactive)

* * *

Tested on: Cytochrome P450 1A2 (Homo sapiens) (UniProt P05177)
Sequence (P05177 whole entry, looked up): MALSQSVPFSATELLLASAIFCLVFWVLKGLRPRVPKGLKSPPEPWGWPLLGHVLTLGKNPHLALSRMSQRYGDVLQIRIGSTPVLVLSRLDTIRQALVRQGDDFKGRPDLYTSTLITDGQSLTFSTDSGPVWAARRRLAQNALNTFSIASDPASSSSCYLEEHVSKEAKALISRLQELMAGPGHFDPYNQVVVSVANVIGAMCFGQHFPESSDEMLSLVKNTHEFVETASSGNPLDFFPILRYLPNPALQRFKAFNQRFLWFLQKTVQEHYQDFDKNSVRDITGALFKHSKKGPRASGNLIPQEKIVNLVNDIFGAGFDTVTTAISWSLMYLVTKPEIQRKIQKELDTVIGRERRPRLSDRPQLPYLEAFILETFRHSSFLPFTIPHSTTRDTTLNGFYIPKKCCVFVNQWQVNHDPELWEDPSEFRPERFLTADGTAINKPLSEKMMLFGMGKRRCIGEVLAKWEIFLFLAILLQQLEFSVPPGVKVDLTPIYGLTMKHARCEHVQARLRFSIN
Assay comment: Cytochrome P450 Family 1 Subfamily A Member 2 (CYP1A2) small molecule antagonists: luciferase reporter qHTS assay (AID 1671199); further: nearly all actives have a fitted effect of over 50% in size; further: potency means the concentration at half of the fitted maximal effect
Test parameters: P450-Glo CYP1A2 enzyme, luciferin luminescence, 1 h; series mostly up to 53 µM
Records with an inconclusive call do not appear. The source made the active and inactive calls. The call rests on the fitted dose curve; in most records, active means well fitted inhibition curve with a large enough effect in the repeat runs; inconclusive means weak or mixed curves; inactive means no such curve, though single readings can be large or run the other way.
Parameter measured: Potency

Molecule: CN(C)c1ccc(CCO)cc1
Potency: 35.4 µM (active)

Molecule: CC1OC(=O)C(C)OC1=O (stereo unspecified)
Potency: inactive

Molecule: CNCCCN1c2ccccc2CCc2ccccc21
Potency: inactive

Molecule: CC(=O)c1ccc2c(c1)N(CCCN(C)C)c1ccccc1S2
Potency: 11 µM (active)

Molecule: Cc1oc(-c2ccccc2)nc1CCOc1cccc2c1ccn2CCC(=O)O
Potency: inactive

As a next step, examine the molecule that follows.
Suppose we examine the molecule COc1cc2c(cc1OC)C(C(C(=O)N(CCc1ccc(OC)c(OC)c1OC)CCc1ccc(OC)c(OC)c1OC)c1ccccc1)=NCC2 (stereo unspecified) ; what Potency value has been reported?
inactive

* * *

Tested on: Androgen receptor (Homo sapiens) (UniProt P10275)
Assay comment: qHTS assay to identify small molecule agonists of the androgen receptor (AR) signaling pathway using the MDA cell line (AID 743040; further: nearly all actives have a fitted effect of over 20% in size)
Test parameters: MDA-kb2 AR-luc cells, MMTV luciferase, 16 h; series mostly up to 70.3 µM
Active and inactive are the calls of the source. The call rests on the fitted dose curve; in most records, active means well fitted activation curve with a large enough effect in the repeat runs; inconclusive means weak or mixed curves; inactive means flat fitted curve, though single readings scatter.
Lab note: assign the record to one of 1 = active, -1 = inactive

# example entries with known answers
Molecule smiles: CC(=O)NO
Tested on: Androgen receptor (Homo sapiens) (UniProt P10275)
Assigned category: -1

Molecule smiles: O=C(O)C1(C(=O)Nc2ccc(Cl)cc2Cl)CC1
Tested on: Androgen receptor (Homo sapiens) (UniProt P10275)
Assigned category: -1

Molecule smiles: NCCCN1CCOCC1
Tested on: Androgen receptor (Homo sapiens) (UniProt P10275)
Assigned category: -1

Given `CCCCCCCCCCCCCCCCOS(=O)(=O)O` , state the outcome it received in this test.
-1

Given `Cc1cccc(C)c1OCC(=O)N[C@@H](Cc1ccccc1)[C@@H](O)C[C@H](Cc1ccccc1)NC(=O)[C@H](C(C)C)N1CCCNC1=O` , state the outcome it received in this test.
-1

Given `CCOC(=O)COC(=O)c1cc(Oc2ccc(C(F)(F)F)cc2Cl)ccc1[N+](=O)[O-]` , state the outcome it received in this test.
-1

Given `c1ccc(-c2ccccn2)nc1` , state the outcome it received in this test.
-1

Given `O=C1CCCCCCCCCCCC(=O)OCCO1` , state the outcome it received in this test.
-1

Given `CCCCC(=O)OCC(=O)[C@H]1[C@H](C)C[C@H]2[C@@H]3C[C@H](F)C4=CC(=O)C=C[C@]4(C)[C@@]3(F)[C@@H](O)C[C@@]21C` , state the outcome it received in this test.
1
